This collection of values is drawn from ChEMBL document CHEMBL1143844.

# experimental-details: Inhibition of HIV1 pNL4-3 reverse transcriptase 115F mutant by heteropolymeric DNA polymerase assay
# Parameters: species or system Human immunodeficiency virus 1
Measured IC50 accompanies every entry in the list below.
Just the number please, in nM, no unit attached.

Completed entries (count: 3):
compound | IC50 / nM
Cc1cn([C@H]2CO[C@@H](COP(=O)(O)OP(=O)(O)OP(=O)(O)O)O2)c(=O)[nH]c1=O | 80
Nc1nc(=O)c2ncn([C@H]3C=C[C@@H](COP(=O)(O)OP(=O)(O)OP(=O)(O)O)C3)c2[nH]1 [CARBOVIR 5'-TRIPHOSPHATE, (-)-] | 2600
Cc1cn([C@H]2C[C@H](N=[N+]=[N-])[C@@H](COP(=O)(O)OP(=O)(O)OP(=O)(O)O)O2)c(=O)[nH]c1=O [ZIDOVUDINE TRIPHOSPHATE] | 130

Proceeding to the next compound to report its IC50.
Task: Provide measured IC50 value, entry: "C[C@H](Cn1cnc2c(N)ncnc21)OCP(=O)(O)OP(=O)(O)OP(=O)(O)O"
Result: 1100

====

# target-under-test: Human immunodeficiency virus type 1 reverse transcriptase (Human immunodeficiency virus 1)
# experimental-details: Inhibition of HIV1 pNL4-3 reverse transcriptase wild type pNL4-3 by heteropolymeric DNA polymerase assay
quantity: pIC50
Quick note: pIC50 values are minus log10 of concentrations in mol/L.

Completed entries (count: 2):
compound | target-under-test | endpoint-value
Cc1cn([C@H]2CO[C@@H](COP(=O)(O)OP(=O)(O)OP(=O)(O)O)O2)c(=O)[nH]c1=O | Human immunodeficiency virus type 1 reverse transcriptase (Human immunodeficiency virus 1) | 7.00
Nc1nc(=O)c2ncn([C@H]3C=C[C@@H](COP(=O)(O)OP(=O)(O)OP(=O)(O)O)C3)c2[nH]1 [CARBOVIR 5'-TRIPHOSPHATE, (-)-] | Human immunodeficiency virus type 1 reverse transcriptase (Human immunodeficiency virus 1) | 5.92

Task: Provide measured pIC50 value, entry: Cc1cn([C@H]2C[C@H](N=[N+]=[N-])[C@@H](COP(=O)(O)OP(=O)(O)OP(=O)(O)O)O2)c(=O)[nH]c1=O [ZIDOVUDINE TRIPHOSPHATE]
Result: 6.89

Task: Provide measured pIC50 value, entry: "C[C@H](Cn1cnc2c(N)ncnc21)OCP(=O)(O)OP(=O)(O)OP(=O)(O)O"
Result: 5.92

====

Measured pIC50 accompanies every entry in the list below.
# experimental-details: Inhibition of HIV1 reverse transcriptase wild type HXB2(b) by heteropolymeric DNA polymerase assay
# Parameters: species or system Human immunodeficiency virus 1
Quick note: pIC50 values are minus log10 of concentrations in mol/L.

compound | pIC50
Cc1cn([C@H]2CO[C@@H](COP(=O)(O)OP(=O)(O)OP(=O)(O)O)O2)c(=O)[nH]c1=O | 6.92

Proceeding to the next compound to report its pIC50.
Task: Provide measured pIC50 value, entry: Cc1cn([C@H]2C[C@H](N=[N+]=[N-])[C@@H](COP(=O)(O)OP(=O)(O)OP(=O)(O)O)O2)c(=O)[nH]c1=O [ZIDOVUDINE TRIPHOSPHATE]
Result: 6.70

====

# experimental-details: Inhibition of HIV1 reverse transcriptase 41L/67N/70R/210W/215Y mutant in presence of 3.2 mM ATP by prA/odT assay
# Design: species or system Human immunodeficiency virus 1
quantity: pKi
Quick note: pKi values are minus log10 of concentrations in mol/L.

compound | quantity | endpoint-value
Cc1cn([C@H]2CO[C@@H](COP(=O)(O)OP(=O)(O)OP(=O)(O)O)O2)c(=O)[nH]c1=O | pKi | 7.89

Proceeding to the next compound to report its pKi.
Task: Provide measured pKi value, entry: Cc1cn([C@H]2C[C@H](N=[N+]=[N-])[C@@H](COP(=O)(O)OP(=O)(O)OP(=O)(O)O)O2)c(=O)[nH]c1=O [ZIDOVUDINE TRIPHOSPHATE]
Result: 6.89
